Tested on: SN12C
test: NCI tumour cell line growth inhibition, 48 h
Calls of active or inactive are those of the source. No stated cut-off is given here; in the data, active = GI50 up to about 1.1 µM and inactive = higher.
measured_endpoint: GI50

Cc1ccccc1C(=O)C#Cc1cn(C2CC(O)C(CO)O2)c(=O)[nH]c1=O (stereo not given): > 100 µM (inactive)
COC(=O)c1csc(-c2nc(CCNC(=O)OC(C)(C)C)sc2Br)n1: > 100 µM (inactive)
COc1cc2c(cc1C)NC(=O)/C2=C/c1c(Cl)n(C)c2ccccc12: 12.8 µM (inactive)
O=c1c2sc(=S)n(-c3ccc(F)cc3)c2ncn1/N=C/c1ccc(F)cc1F: 31.3 µM (inactive)
COc1cc2c(cc1O)[C@]1(Cc3ccc4c(c3C1=O)OCO4)N(C)CC2: > 100 µM (inactive)
COc1ccc2c(c1)C/C(=C\c1ccc(O)c(OC)c1)C2=O: > 100 µM (inactive)
NCP(=O)(O)OCC(=O)O: > 100 µM (inactive)
Cc1ccc(C(=O)N2CCCCC2)cc1/N=N/N(C)C: > 100 µM (inactive)
CC1CC(=O)CC[C@@H]1OCc1ccccc1 (stereo not given in full): > 100 µM (inactive)

Now for a further molecule.
What value of measured GI50 is listed for CC(=O)Oc1c(C)c2c(O)c3c1C1=C(OCOC1=C(C)C3=O)/C(C)=C/C(C)(O)C(O)C(C)C(O)C1C(=O)OC(C(C)C1O)C(C)(O)/C=C\C=C(C)C(=O)N2 (stereo not given) ?
35 µM (inactive)

----------
Test system: SK-MEL-5
test: NCI tumour cell line growth inhibition, 48 h
Activity calls are given as the source filed them. Rule as the data show it: active = GI50 up to about 1.1 µM and inactive = higher.
measured_endpoint: GI50

# example entries with known answers
OCc1ccc2[n+](c1)CCC1c3ccccc3NC21 (stereo not given): 86.9 µM (inactive)
COc1ccc(OC)c(/C=C2/C(=O)N/C(=N\C(C)=O)N2C)c1: > 100 µM (inactive)
N#Cc1nnn(C2CCCCC2)c1O: > 100 µM (inactive)

Now for a further compound.
What value of measured GI50 is listed for "C=CCNC(=S)OCCCCCCCCCC" ?
16.7 µM (inactive)

----------
System: MDA-MB-231
test: NCI tumour cell line growth inhibition, 48 h
Calls of active or inactive are those of the source. Cut-off read from the data, not from the text of the source: active = GI50 up to about 1.1 µM and inactive = higher.
Please state which outcome applies, choosing from active, inactive

CN1C(CC(O)c2ccccc2)CCCC1CC(O)(c1ccccc1)c1ccccc1 (stereo not drawn): inactive

Call for entry COc1cc(C2C3=C(COC3=O)Oc3cc4c(cc32)OCO4)ccc1OC(C)=O (stereo not drawn) :
active

----------
Test system: SW-620
test: NCI tumour cell line growth inhibition, 48 h
The source made the active and inactive calls. Rule as the data show it: active = GI50 up to about 1.1 µM and inactive = higher.
Each item that follows carries a reported GI50.

# example entries with known answers
CSCSCC(CO)NC(=O)/C=C\c1c(C)[nH]c(=O)[nH]c1=O (stereo unspecified): 15.7 µM (inactive)
O=[N+]([O-])/C=C/c1cccc(F)c1: 2.58 µM (inactive)
COc1cccc(NC(=S)Nn2c(C)nc3ccccc3c2=O)c1: > 100 µM (inactive)

What value of measured GI50 is listed for CCOC(OCC)[C@@H]1C[C@@H]2N(O[C@H](OC3CCCC3(c3ccccc3)c3ccccc3)[C@H](OC(C)=O)[C@@]2(CC)Cc2ccc(OC)c(OC)c2)O1 (stereo partly specified) ?
> 100 µM (inactive)

What value of measured GI50 is listed for "[N-]=[N+]=Nc1ccccc1C(=O)N1C(=O)c2ccccc2C(=O)N(C(=O)c2ccccc2N=[N+]=[N-])c2ccccc21" ?
32.1 µM (inactive)

What value of measured GI50 is listed for CCOC(=O)C1C(=O)CC(=O)C2CCCCC21 (stereo unspecified) ?
> 100 µM (inactive)

What value of measured GI50 is listed for "O=C1N[C@@H]2c3c(Br)sc(Br)c3C(=O)[C@@H]2N1" ?
1.77 µM (inactive)

What value of measured GI50 is listed for "N#CC(CC(=O)O)=C(c1ccccc1)c1ccccc1" ?
> 100 µM (inactive)

What value of measured GI50 is listed for CCOc1ccc(OP2(=O)NC(=O)C=C(C)N2)cc1 (stereo unspecified) ?
> 100 µM (inactive)

What value of measured GI50 is listed for "COC(=O)[C@]12CSC[C@H]1C[C@H](c1ccc(N(C)C)cc1)N2" ?
> 100 µM (inactive)

What value of measured GI50 is listed for "OC(Cc1ccc2ccccc2n1)(C(F)(F)F)C(F)(F)F" ?
> 10 µM (inactive)

What value of measured GI50 is listed for CC1C2CC(C/C2=N/O)C1(C)C (stereo unspecified) ?
> 100 µM (inactive)

From: ChEMBL document CHEMBL1201862
